B1: HHH_rd1_0493 (parent)
chain: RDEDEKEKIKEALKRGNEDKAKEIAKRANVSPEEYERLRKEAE

- Variants of: B1
- method.notes: folding stability dG (cDNA display proteolysis); higher = more stable
- test.parameters: PBS, room temperature
// thresholds for folding stability dG classes: class A: < 2 kcal/mol; class B: ≥ 2 kcal/mol and < 3 kcal/mol; class C: ≥ 3 kcal/mol

{"variant.designation": "R27H", "classification": "class B"}
{"variant.designation": "E43M", "classification": "class C"}
{"variant.designation": "I9C", "classification": "class A"}
{"variant.designation": "R37W", "classification": "class B"}
{"variant.designation": "R37F", "classification": "class B"}
{"variant.designation": "R27E", "classification": "class B"}
{"variant.designation": "A42H", "classification": "class A"}
{"variant.designation": "I24W", "classification": "class A"}
{"variant.designation": "L38W", "classification": "class A"}
{"variant.designation": "G16T", "classification": "class A"}
{"variant.designation": "K6W", "classification": "class C"}
{"variant.designation": "K6V", "classification": "class B"}
{"variant.designation": "L13R", "classification": "class A"}
{"variant.designation": "A28C", "classification": "class B"}
{"variant.designation": "K10I", "classification": "class B"}
{"variant.designation": "K6M", "classification": "class C"}
{"variant.designation": "D4K", "classification": "class B"}
{"variant.designation": "E34Q", "classification": "class A"}
{"variant.designation": "K22S", "classification": "class B"}
{"variant.designation": "K22W", "classification": "class B"}
{"variant.designation": "A21M", "classification": "class A"}
{"variant.designation": "K40Y", "classification": "class B"}
{"variant.designation": "K20H", "classification": "class B"}
{"variant.designation": "E23L", "classification": "class B"}
{"variant.designation": "E5Y", "classification": "class C"}
{"variant.designation": "E11I", "classification": "class B"}
{"variant.designation": "R1V", "classification": "class C"}
{"variant.designation": "K20A", "classification": "class C"}
{"variant.designation": "R27D", "classification": "class B"}
{"variant.designation": "K14N", "classification": "class A"}
{"variant.designation": "E5V", "classification": "class C"}
